Molecular target: Alpha-1A/Alpha-1B/Alpha-1D adrenergic receptor (Rattus norvegicus, UniProt P15823+P43140+P23944)
Sequence (P15823 whole entry): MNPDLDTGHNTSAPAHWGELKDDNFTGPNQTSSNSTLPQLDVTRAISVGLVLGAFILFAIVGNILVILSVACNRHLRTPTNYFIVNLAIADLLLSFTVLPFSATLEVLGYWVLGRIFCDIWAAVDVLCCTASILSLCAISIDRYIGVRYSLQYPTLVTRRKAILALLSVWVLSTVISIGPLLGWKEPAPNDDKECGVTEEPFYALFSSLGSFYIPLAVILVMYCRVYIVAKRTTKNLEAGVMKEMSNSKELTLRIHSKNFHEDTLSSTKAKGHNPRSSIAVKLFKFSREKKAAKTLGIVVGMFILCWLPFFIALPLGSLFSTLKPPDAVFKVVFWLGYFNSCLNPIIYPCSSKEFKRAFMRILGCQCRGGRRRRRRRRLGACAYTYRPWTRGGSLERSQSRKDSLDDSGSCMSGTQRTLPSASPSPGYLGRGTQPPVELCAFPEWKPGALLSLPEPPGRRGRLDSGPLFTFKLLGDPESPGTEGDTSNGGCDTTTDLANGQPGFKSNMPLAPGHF
Sequence (P43140 whole entry): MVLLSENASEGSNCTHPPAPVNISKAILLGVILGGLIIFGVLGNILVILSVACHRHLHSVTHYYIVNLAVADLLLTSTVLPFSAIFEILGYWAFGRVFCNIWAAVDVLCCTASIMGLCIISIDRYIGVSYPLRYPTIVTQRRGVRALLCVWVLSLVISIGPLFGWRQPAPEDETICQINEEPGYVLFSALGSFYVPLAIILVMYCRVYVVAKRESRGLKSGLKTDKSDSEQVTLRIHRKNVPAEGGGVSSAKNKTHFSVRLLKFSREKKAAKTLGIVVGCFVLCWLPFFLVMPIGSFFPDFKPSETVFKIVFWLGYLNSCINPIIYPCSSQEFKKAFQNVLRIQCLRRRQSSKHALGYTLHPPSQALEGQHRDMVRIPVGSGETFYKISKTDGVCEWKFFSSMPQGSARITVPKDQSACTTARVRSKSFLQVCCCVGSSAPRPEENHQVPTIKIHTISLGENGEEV
Sequence (P23944 whole entry): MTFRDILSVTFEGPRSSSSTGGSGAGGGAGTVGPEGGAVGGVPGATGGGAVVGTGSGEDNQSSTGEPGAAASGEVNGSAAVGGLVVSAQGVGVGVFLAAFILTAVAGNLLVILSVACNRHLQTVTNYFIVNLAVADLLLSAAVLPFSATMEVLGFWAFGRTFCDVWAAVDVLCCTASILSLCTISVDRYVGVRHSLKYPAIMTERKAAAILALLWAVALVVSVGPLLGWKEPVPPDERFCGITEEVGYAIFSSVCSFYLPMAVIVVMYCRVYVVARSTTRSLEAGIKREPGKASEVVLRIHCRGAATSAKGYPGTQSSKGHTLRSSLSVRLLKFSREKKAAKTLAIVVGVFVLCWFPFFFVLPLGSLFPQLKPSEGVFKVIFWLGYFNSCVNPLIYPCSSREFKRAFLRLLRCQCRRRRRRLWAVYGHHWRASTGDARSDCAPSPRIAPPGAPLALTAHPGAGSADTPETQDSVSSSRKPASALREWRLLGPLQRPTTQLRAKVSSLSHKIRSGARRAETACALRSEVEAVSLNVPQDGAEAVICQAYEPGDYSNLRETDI
Assay: Binding affinity towards Alpha-1 adrenergic receptor in rat cerebral cortex membranes using [3H]prazosin as radioligand
READOUT_TYPE: Ki

Using the record for O=c1n(CN2CCN(c3cccc4ccccc34)CC2)c(O)c2n1CCC2 , state its measured Ki.
> 1000 nM

Recorded values, source BindingDB's records for doi:10.1016/s0960-894x(03)00160-4.
